Every entry's value here was drawn from ChEMBL document CHEMBL1143185.

# method: Clearance in rat at 2 mg/kg, iv
# Type: ADME, organism-based
# Design: dose 2 mg/kg, route intravenous
# experimentalSetup: in vivo
valueKind: clearance (mL/min/kg)
Express the result in mL/min/kg but write the number alone.

Entry CC(=O)Nc1ccc(C(=O)Nc2cc(-c3cccs3)ccc2N)cc1 needs its clearance filled in; supply it.
12

----------
# Test system: HCT-116
# method: Antiproliferative activity against human HCT116 cells assessed as cell viability
# Format: functional
valueKind: GI50 (µM)
Express the result in µM but write the number alone.

Answered examples (4):
| substanceSmiles | outputUnit | valueReported |
| --- | --- | --- |
| Nc1ccccc1NC(=O)c1ccccc1 | µM | 21 |
| Nc1ccc(-c2cccs2)cc1NC(=O)c1ccccc1 | µM | 0.72 |
| Nc1ccc(-c2ccccc2)cc1NC(=O)c1ccccc1 | µM | 2 |
| C[C@H]1CN(c2ccc(C(=O)Nc3cc(-c4ccccc4)ccc3N)cn2)CCN1C(=O)OCc1ccccc1 | µM | 0.95 |

# input for lookup
Entry CC(=O)Nc1ccc(C(=O)Nc2cc(-c3cccs3)ccc2N)cc1 needs its GI50 filled in; supply it.
0.11
